Measured Activity of individual entries
Tested on: TK-10
Experiment: Antitumor activity against human TK-10 cells assessed as reduction of cell growth at 10 uM after 48 hrs by SRB assay
Type: functional
Set-up: scale not given: the % may be the effect or the level left

[[record]]
molecule = "C[C@]12CC[C@H]3[C@@H](CCC4=CC(=O)CC[C@@]43CF)[C@@H]1CCC2=O"
observed_result = "114.8%"

[[record]]
molecule = "C[C@]12CCC(=O)C(N)=C1C=C[C@@H]1[C@@H]2CC[C@]2(C)C(=O)CC[C@@H]12.Cl"
observed_result = "85.59%"

[[record]]
molecule = "CCOC1=C2CC[C@@H]3[C@H](CC[C@]4(C)C(=O)CC[C@@H]34)[C@@]2(C)CCC1=O"
observed_result = "100.6%"


Please examine the following record next.
Ask: Param readout = Activity; param system = TK-10; param query = "C[C@]12CCC(=O)C(Oc3ccccc3)=C1CC[C@@H]1[C@@H]2CC[C@]2(C)C(=O)CC[C@@H]12" ; response: value
Result: 122.99%

----------
Below: a set of entries, each annotated with reported Activity.
Tested on: CAKI-1
Assay: Antitumor activity against human Caki-1 cells assessed as reduction of cell growth at 10 uM after 48 hrs by SRB assay
Assay type: functional
Set-up: scale not given: the % may be the effect or the level left
Field: numeric (%). Do not append units.

[[record]]
molecule = "CCOC1=C2CC[C@@H]3[C@H](CC[C@]4(C)C(=O)CC[C@@H]34)[C@@]2(C)CCC1=O"
quantity_unit = "%"
observed_result = 115.2

[[record]]
molecule = "C[C@]12CC[C@H]3[C@@H](CCC4=CC(=O)CC[C@@]43CF)[C@@H]1CCC2=O"
quantity_unit = "%"
observed_result = 111

[[record]]
molecule = "C[C@]12CCC(=O)C(N)=C1C=C[C@@H]1[C@@H]2CC[C@]2(C)C(=O)CC[C@@H]12.Cl"
quantity_unit = "%"
observed_result = 84.08


Please look at the following molecule next.
Ask: Recorded Activity of "C[C@]12CCC(=O)C(Oc3ccccc3)=C1CC[C@@H]1[C@@H]2CC[C@]2(C)C(=O)CC[C@@H]12" , please.
Result: 112.48

----------
Tested on: SN12C
Assay: Antitumor activity against human SN12C cells assessed as reduction of cell growth at 10 uM after 48 hrs by SRB assay
Assay type: functional
Set-up: scale not given: the % may be the effect or the level left
recorded endpoint: Activity
Give me the value, and tack the unit on after it.

[[record]]
molecule = "C[C@]12CC[C@H]3[C@@H](CCC4=CC(=O)CC[C@@]43CF)[C@@H]1CCC2=O"
observed_result = "113.5%"


Ask: Find the measured Activity: item "CCOC1=C2CC[C@@H]3[C@H](CC[C@]4(C)C(=O)CC[C@@H]34)[C@@]2(C)CCC1=O" , target or system SN12C.
Result: 110.6%

Ask: How about this compound: "C[C@]12CCC(=O)C(Oc3ccccc3)=C1CC[C@@H]1[C@@H]2CC[C@]2(C)C(=O)CC[C@@H]12"
Result: 90.07%

Ask: Follow-up item: "C[C@]12CCC(=O)C(N)=C1C=C[C@@H]1[C@@H]2CC[C@]2(C)C(=O)CC[C@@H]12.Cl"
Result: 88.53%
